Provenance of the data: paper PMC6270091

Biological target: GABABR1b/GABABR2 receptors co-expressed with the chimeric G protein Gαq-z5 in tsA201 cells (Rattus norvegicus, UniProt Q9Z0U4)
Sequence (Q9Z0U4 1-844 isoform Q9Z0U4-3): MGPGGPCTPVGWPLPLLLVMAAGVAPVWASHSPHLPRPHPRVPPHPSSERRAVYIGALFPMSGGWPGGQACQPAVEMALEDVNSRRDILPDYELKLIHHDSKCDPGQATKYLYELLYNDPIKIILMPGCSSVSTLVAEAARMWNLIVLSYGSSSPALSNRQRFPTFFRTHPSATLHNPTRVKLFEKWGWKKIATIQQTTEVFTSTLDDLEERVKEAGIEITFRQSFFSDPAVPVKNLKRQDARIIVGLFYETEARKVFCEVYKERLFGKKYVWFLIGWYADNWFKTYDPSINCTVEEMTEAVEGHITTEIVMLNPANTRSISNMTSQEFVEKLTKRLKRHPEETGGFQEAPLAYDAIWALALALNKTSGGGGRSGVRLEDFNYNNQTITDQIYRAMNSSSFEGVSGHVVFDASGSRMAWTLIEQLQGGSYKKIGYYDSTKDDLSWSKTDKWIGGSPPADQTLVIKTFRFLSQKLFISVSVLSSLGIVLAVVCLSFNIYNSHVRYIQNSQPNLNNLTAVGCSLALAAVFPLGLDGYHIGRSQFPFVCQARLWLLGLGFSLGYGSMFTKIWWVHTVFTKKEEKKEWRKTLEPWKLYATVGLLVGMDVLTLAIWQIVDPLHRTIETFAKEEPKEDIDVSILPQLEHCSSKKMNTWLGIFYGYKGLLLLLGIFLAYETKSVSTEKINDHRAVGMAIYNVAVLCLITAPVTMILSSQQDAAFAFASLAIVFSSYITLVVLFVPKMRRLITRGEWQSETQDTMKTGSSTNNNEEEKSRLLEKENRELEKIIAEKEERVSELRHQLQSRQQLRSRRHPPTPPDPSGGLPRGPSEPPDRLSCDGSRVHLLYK
Sequence (O88871 41-940 partner): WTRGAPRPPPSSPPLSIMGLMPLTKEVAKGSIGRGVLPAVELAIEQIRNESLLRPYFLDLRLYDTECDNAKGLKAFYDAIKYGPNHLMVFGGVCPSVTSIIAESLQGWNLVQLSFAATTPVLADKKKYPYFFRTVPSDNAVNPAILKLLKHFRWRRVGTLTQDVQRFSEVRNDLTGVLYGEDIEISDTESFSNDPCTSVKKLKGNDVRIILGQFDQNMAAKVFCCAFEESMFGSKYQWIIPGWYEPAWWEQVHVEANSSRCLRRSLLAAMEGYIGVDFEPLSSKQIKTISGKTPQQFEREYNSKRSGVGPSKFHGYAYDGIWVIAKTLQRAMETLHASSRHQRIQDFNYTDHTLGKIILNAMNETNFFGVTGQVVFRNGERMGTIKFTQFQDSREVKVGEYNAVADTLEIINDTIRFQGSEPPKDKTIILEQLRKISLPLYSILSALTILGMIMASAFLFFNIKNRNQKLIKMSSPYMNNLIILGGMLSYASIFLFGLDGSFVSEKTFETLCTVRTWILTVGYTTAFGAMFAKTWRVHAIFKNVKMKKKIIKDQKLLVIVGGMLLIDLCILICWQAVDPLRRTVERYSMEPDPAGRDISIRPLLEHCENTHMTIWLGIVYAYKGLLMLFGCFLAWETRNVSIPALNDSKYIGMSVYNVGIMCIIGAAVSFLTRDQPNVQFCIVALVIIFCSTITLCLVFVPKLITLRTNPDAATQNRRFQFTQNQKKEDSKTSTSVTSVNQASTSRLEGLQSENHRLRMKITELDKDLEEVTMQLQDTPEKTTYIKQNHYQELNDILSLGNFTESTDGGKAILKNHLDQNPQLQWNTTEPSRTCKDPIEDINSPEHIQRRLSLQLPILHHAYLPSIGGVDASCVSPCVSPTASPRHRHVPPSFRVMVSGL
Experiment: GABAB agonist activity, intracellular calcium (Fluo-4) in transfected tsA201 cells
Details: agonist; Ca2+ response, tsA201 cells transfected with GABAB1b/GABAB2/Gqz5
pEC50: −log10 of the molar value.
// pEC50 lookup, one value per entry

The following molecules have reported results that may help.
molecule	pEC50
NCCC(CC(=O)O)c1ccc(Cl)cc1 (racemic)	4.34
CC(CCN)CC(=O)O (racemic) [Compound 1i, (R,S)-5-amino-3-methylpentanoic acid]	< 3.52
NCCC(CC(=O)O)c1ccc(Cl)cc1Cl (racemic)	< 3.52
NCCC(CC(=O)O)c1ccccc1 (racemic)	< 3.52
Cc1ccc(C(CCN)CC(=O)O)cc1 (racemic)	< 3.52
COc1cccc(C(CCN)CC(=O)O)c1 (racemic)	< 3.52

[in] What value of pEC50 has been reported for the following molecule? NCCC(CC(=O)O)c1ccc(Cl)c(Cl)c1 (racemic)
[out] 3.89

[in] What value of pEC50 has been reported for the following molecule? COc1ccc(C(CCN)CC(=O)O)cc1 (racemic)
[out] < 3.52

[in] What value of pEC50 has been reported for the following molecule? NCCC(CC(=O)O)c1ccc(F)cc1 (racemic)
[out] 3.77
